Cited source: ChEMBL document CHEMBL5543103

Species: Homo sapiens
Assay summary: Induction of F-actin depolymerization (unknown origin) at 10 uM measured for 900 sec in presence of ATP by fluorescence spectrophotometer method relative to MycB
Property label: Activity (%)
Report as a plain number; the unit % is understood.

Examples with their reported Activity follow.
Compound: CCC(=O)O[C@H](CC)C[C@H](OC)[C@@H](C)CC[C@H](OC(=O)CC)[C@H](C)[C@H](OC)[C@H](C)/C=C/N(C)C=O
Property label: Activity
Unit abbreviation: %
Measured: 17

Compound: CCC(=O)O[C@H](CC)C[C@H](OC)[C@@H](C)CC[C@@H](OC(=O)CC)[C@H](C)[C@H](OC)[C@H](C)/C=C/N(C)C=O
Property label: Activity
Unit abbreviation: %
Measured: 42

Compound: CCC(=O)O[C@@H](C[C@H](OC)[C@@H](C)CC[C@@H](OC(=O)C(C)C)[C@H](C)[C@H](OC)[C@H](C)/C=C/N(C)C=O)C1CCCCC1
Property label: Activity
Unit abbreviation: %
Measured: 45

Compound: CCC(=O)O[C@@H](C[C@H](OC)[C@@H](C)CC[C@@H](OC(=O)C(C)C)[C@H](C)[C@H](OC)[C@H](C)/C=C/N(C=O)CC)C(C)C
Property label: Activity
Unit abbreviation: %
Measured: 87

Compound: CCC(=O)O[C@H](CC)C[C@H](OC)[C@@H](C)CC[C@@H](OC(=O)C(C)C)[C@H](C)[C@H](OC)[C@H](C)/C=C/N(C)C=O
Property label: Activity
Unit abbreviation: %
Measured: 33

Q) Look up and state reported Activity for CCC(=O)O[C@@H](C[C@H](OC)[C@@H](C)CC[C@@H](OC(=O)c1ccco1)[C@H](C)[C@H](OC)[C@H](C)/C=C/N(C)C=O)C(C)C
A) 41

Q) Output measured Activity for this item: CCC(=O)O[C@@H](C[C@H](OC)[C@@H](C)CC[C@@H](OC(=O)C(C)C)[C@H](C)[C@H](OC)[C@H](C)/C=C/N(C)C=O)C(C)C
A) 6

Q) Give Activity for CCC(=O)O[C@@H](C[C@H](OC)[C@@H](C)CC[C@@H](OC(=O)C(C)C)[C@H](C)[C@H](OC)[C@H](C)/C=C/N1CCC1=O)C(C)C
A) 12

Q) Input CCC(=O)O[C@@H](C[C@H](OC)[C@@H](C)CC[C@@H](OC(=O)[C@H]1CCCN1C)[C@H](C)[C@H](OC)[C@H](C)/C=C/N(C)C=O)C(C)C , output reported Activity.
A) 25

Q) Return value of Activity for input CCC(=O)O[C@@H](C[C@H](OC)[C@@H](C)CC[C@@H](OC(=O)[C@H]1CCCO1)[C@H](C)[C@H](OC)[C@H](C)/C=C/N(C=O)CC)C(C)C , no commentary.
A) 77

Q) Annotate the compound CO[C@@H]([C@@H](C)[C@@H](CC[C@H](C)[C@H](C[C@H](OC(=O)CCCN)C(C)C)OC)OC(=O)[C@H]1CCCO1)[C@H](C)/C=C/N(C)C=O with its measured Activity.
A) 58

---

Species: Oryctolagus cuniculus
Assay summary: Inhibition of rabbit skeletal muscle G-actin polymerization at 0.5 uM preincubated for 50 sec followed by ATP addition and measured for 600 sec by fluorescence spectrophotometer method relative to control
Measurement setup: time 650.0 sec
Property label: inhibition (%)
Provide the reading as a plain figure in %.

Record excerpt, results attached:
Test smiles: CCC(=O)O[C@H](CC)C[C@H](OC)[C@@H](C)CC[C@@H](OC(=O)C(C)C)[C@H](C)[C@H](OC)[C@H](C)/C=C/N(C)C=O
inhibition / %: 40

Test smiles: CCCN(C=O)/C=C/[C@@H](C)[C@@H](OC)[C@@H](C)[C@@H](CC[C@H](C)[C@H](C[C@H](OC(=O)CC)C(C)C)OC)OC(=O)C(C)C
inhibition / %: 40

Q) Please give the documented inhibition of CCC(=O)O[C@@H](C[C@H](OC)[C@@H](C)CC[C@@H](OC(=O)[C@@H]1CCCO1)[C@H](C)[C@H](OC)[C@H](C)/C=C/N(C)C=O)C(C)C
A) 50

---

Some compounds, each annotated with its measured Activity.
Organism: Homo sapiens
Assay summary: Induction of F-actin depolymerization (unknown origin) at 10 uM measured for 900 sec in presence of ATP by fluorescence spectrophotometer method relative to MycB

Compound: CCC(=O)O[C@@H](C[C@H](OC)[C@@H](C)CC[C@@H](OC(=O)[C@@H]1CCCO1)[C@H](C)[C@H](OC)[C@H](C)/C=C/N(C)C=O)C(C)C
Measured: 67%
--
Compound: CC[C@@H](O)C[C@H](OC)[C@@H](C)CC[C@@H](OC(=O)C(C)C)[C@H](C)[C@H](OC)[C@H](C)/C=C/N(C)C=O
Measured: 0%
--
Compound: CCCN(C=O)/C=C/[C@@H](C)[C@@H](OC)[C@@H](C)[C@@H](CC[C@H](C)[C@H](C[C@H](OC(=O)CC)C(C)C)OC)OC(=O)C(C)C
Measured: 32%
--
Compound: CCC(=O)O[C@@H](C[C@H](OC)[C@@H](C)CC[C@@H](OC(=O)C1CCC1)[C@H](C)[C@H](OC)[C@H](C)/C=C/N(C)C=O)C(C)C
Measured: 52%
--
Compound: CCC(=O)O[C@@H](C[C@H](OC)[C@@H](C)CC[C@@H](OC(=O)C(C)C)[C@H](C)[C@H](OC)[C@H](C)/C=C/N(C=O)CC(F)(F)F)C(C)C
Measured: 53%
--
Compound: CCC(=O)O[C@@H](C[C@H](OC)[C@@H](C)CC[C@@H](OC(=O)C(C)C)[C@H](C)[C@H](OC)[C@H](C)/C=C/N1CCCC1=O)C(C)C
Measured: 26%
--
Compound: CCC(=O)O[C@@H](C[C@H](OC)[C@@H](C)CC[C@@H](OC(=O)[C@H]1CCCO1)[C@H](C)[C@H](OC)[C@H](C)/C=C/N(C)C=O)C(C)C
Measured: 75%
--
Compound: CCC(=O)O[C@@H](C[C@H](OC)[C@@H](C)CC[C@@H](OC(=O)C1CCCC1)[C@H](C)[C@H](OC)[C@H](C)/C=C/N(C)C=O)C(C)C
Measured: 39%
--
Compound: CCC(=O)O[C@@H](C[C@H](OC)[C@@H](C)CC[C@@H](OC(=O)C(C)C)[C@H](C)[C@H](OC)[C@H](C)/C=C/N1CCCCC1=O)C(C)C
Measured: 14%
--
Compound: CCC(=O)O[C@@H](C[C@H](OC)[C@@H](C)CC[C@@H](OC(=O)C1CCCCC1)[C@H](C)[C@H](OC)[C@H](C)/C=C/N(C)C=O)C(C)C
Measured: 20%

# ---- query compound ----
Q) Look up and state reported Activity for CCC(=O)O[C@@H](C[C@H](OC)[C@@H](C)CC[C@@H](OC(=O)C(C)C)[C@H](C)C(OC)[C@H](C)/C=C/N(C=O)C1CC1)C(C)C (single isomer, unassigned)
A) 56%
